# targetOfAssay: CDK4-CYCLIN D1 (Homo sapiens, UniProt P11802)
# Sequence (P11802 whole entry): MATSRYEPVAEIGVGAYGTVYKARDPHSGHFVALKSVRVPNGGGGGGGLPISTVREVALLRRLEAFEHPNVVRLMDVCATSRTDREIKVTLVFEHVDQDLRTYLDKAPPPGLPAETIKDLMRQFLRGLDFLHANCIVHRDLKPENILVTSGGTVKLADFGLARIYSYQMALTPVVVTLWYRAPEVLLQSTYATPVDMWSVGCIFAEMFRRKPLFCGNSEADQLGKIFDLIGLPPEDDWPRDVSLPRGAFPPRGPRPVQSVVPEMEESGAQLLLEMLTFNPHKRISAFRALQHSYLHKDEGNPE
# Sequence (P24385 whole entry partner): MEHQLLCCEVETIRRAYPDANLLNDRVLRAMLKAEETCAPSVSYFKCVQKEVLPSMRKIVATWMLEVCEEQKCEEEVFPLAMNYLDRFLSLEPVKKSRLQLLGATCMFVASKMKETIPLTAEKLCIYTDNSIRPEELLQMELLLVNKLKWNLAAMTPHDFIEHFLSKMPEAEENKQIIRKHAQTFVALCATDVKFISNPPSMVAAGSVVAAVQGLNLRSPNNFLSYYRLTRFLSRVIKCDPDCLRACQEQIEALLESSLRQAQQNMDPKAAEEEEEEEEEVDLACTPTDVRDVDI
# procedureText: CDK protein kinase inhibition by ADP-Glo assay, CDK4-CYCLIN D1
# Assay type: biochemical
# studyConditions: Table 37; recombinant CDK kinase; read-out: CDK4-CYCLIND1, IC50
attributeMeasured: IC50

INSERT INTO assay_data (smilesstring, attributemeasured, reported) VALUES
  ('O=C1NC2CC(COc3cc(ccn3)Nc3[nH]nc(c3F)C3C[C@H](F)[C@@H](C3)O1)C2', 'IC50', '50 to 100 nM'),
  ('O=C1NC2CC(COc3cc(ccn3)Nc3cc(n[nH]3)C3C[C@H](F)[C@@H](C3)O1)C2', 'IC50', '10 to 50 nM'),
  ('O=C1NC2CC(COc3cc(ccn3)Nc3cc(n[nH]3)C3C[C@@H](F)[C@H](C3)O1)C2', 'IC50', '10 to 50 nM'),
  ('C[C@H]1CC(F)(F)COc2cc(ccn2)Nc2[nH]nc(c2F)[C@H]2CC[C@H](C2)OC(=O)N1', 'IC50', '> 500 nM');

Proceeding to the next molecule to report its IC50.
Q: # return recorded IC50 for input O=C1NC2CC(COc3cc(ccn3)Nc3[nH]nc(c3F)C3C[C@@H](F)[C@H](C3)O1)C2
A: 100 to 500 nM

---

We begin with a simple list: items and their reported IC50.
# targetOfAssay: CDK4-CYCLIN D1 (Homo sapiens, UniProt P11802)
# procedureText: CDK protein kinase inhibition by ADP-Glo assay, CDK4-CYCLIN D1
# Assay type: biochemical
# studyConditions: ADP-Glo, 1000 μM ATP; Table 19; read-out: CDK4-CYCLIND1, IC50

Answered cases to consult:
INSERT INTO assay_data (smilesstring, reported) VALUES
  ('C[C@@H]1CCCCc2cc(ccn2)Nc2cc(n[nH]2)[C@H]2CC[C@H](C2)OC(=O)N1', '10 to 50 nM'),
  ('C[C@@H]1CC/C=C/c2cc(ccn2)Nc2cc(n[nH]2)[C@H]2CC[C@H](C2)OC(=O)N1', '100 to 500 nM'),
  ('O=C1NCCCCC(F)(F)c2cc(ccn2)Nc2cc([nH]n2)[C@H]2CC[C@H](C2)O1', '10 to 50 nM'),
  ('C[C@H]1CC/C=C/c2cc(ccn2)Nc2cc(n[nH]2)[C@H]2CC[C@H](C2)OC(=O)N1', '100 to 500 nM'),
  ('O=C1N[C@H]2C[C@H](CCc3cc(ccn3)Nc3cc(n[nH]3)[C@H]3CC[C@H](C3)O1)C2', '10 to 50 nM'),
  ('C[C@H]1CCCCc2cc(ccn2)Nc2cc(n[nH]2)[C@H]2CC[C@H](C2)OC(=O)N1', '50 to 100 nM');

Proceeding to the next compound to report its IC50.
Q: State measured IC50 of the compound C[C@@H]1CCC#Cc2cc(ccn2)Nc2cc(n[nH]2)[C@H]2CC[C@H](C2)OC(=O)N1 with CDK4-CYCLIN D1 (Homo sapiens, UniProt P11802).
A: > 500 nM

---

# targetOfAssay: UniProt:P24941
# procedureText: CDK protein kinase inhibition by ADP-Glo assay, CDK2-CYCLIN E1
# Type: biochemical
# studyConditions: Table 37; recombinant CDK kinase; read-out: CDK2-CYCLINE, IC50
# Experimental: CDK Protein Kinase Inhibition by ADP-Glo Assay This ADP-Glo assay measures ADP formed from a kinase reaction and indirectly quantifies the phosphorylation of peptide substrates by the CDK/cyclin protein complexes. […] At the end of the incubation, the reaction is quenched, and conversion is detected by luminescence using the Promega ADP-Glo™ Kinase Assay kit (catalog #V9102). […]
We begin with a simple list: items and their reported IC50.

INSERT INTO measurements (smilesstring, targetofassay, reported) VALUES
  ('O=C1NC2CC(COc3cc(ccn3)Nc3cc(n[nH]3)C3C[C@@H](F)[C@H](C3)O1)C2', 'UniProt:P24941', '≤ 10 nM'),
  ('C[C@H]1CC(F)(F)COc2cc(ccn2)Nc2[nH]nc(c2F)[C@H]2CC[C@H](C2)OC(=O)N1', 'UniProt:P24941', '≤ 10 nM'),
  ('O=C1NC2CC(COc3cc(ccn3)Nc3[nH]nc(c3F)C3C[C@@H](F)[C@H](C3)O1)C2', 'UniProt:P24941', '≤ 10 nM'),
  ('O=C1NC2CC(COc3cc(ccn3)Nc3[nH]nc(c3F)C3C[C@H](F)[C@@H](C3)O1)C2', 'UniProt:P24941', '10 to 50 nM');

Q: # return recorded IC50 for input O=C1NC2CC(COc3cc(ccn3)Nc3cc(n[nH]3)C3C[C@H](F)[C@@H](C3)O1)C2
A: ≤ 10 nM

---

# targetOfAssay: UniProt P50750
# Sequence (P50750 whole entry): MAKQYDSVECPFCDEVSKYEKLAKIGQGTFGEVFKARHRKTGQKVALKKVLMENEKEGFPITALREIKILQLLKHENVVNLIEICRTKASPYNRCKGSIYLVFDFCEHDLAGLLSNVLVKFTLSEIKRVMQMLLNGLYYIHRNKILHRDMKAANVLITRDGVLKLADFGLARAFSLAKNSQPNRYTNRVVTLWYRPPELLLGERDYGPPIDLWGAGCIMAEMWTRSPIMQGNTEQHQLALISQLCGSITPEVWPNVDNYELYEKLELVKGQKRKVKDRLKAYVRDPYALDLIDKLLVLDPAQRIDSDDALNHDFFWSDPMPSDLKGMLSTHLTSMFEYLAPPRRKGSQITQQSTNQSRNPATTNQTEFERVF
# Sequence (O60563 whole entry partner): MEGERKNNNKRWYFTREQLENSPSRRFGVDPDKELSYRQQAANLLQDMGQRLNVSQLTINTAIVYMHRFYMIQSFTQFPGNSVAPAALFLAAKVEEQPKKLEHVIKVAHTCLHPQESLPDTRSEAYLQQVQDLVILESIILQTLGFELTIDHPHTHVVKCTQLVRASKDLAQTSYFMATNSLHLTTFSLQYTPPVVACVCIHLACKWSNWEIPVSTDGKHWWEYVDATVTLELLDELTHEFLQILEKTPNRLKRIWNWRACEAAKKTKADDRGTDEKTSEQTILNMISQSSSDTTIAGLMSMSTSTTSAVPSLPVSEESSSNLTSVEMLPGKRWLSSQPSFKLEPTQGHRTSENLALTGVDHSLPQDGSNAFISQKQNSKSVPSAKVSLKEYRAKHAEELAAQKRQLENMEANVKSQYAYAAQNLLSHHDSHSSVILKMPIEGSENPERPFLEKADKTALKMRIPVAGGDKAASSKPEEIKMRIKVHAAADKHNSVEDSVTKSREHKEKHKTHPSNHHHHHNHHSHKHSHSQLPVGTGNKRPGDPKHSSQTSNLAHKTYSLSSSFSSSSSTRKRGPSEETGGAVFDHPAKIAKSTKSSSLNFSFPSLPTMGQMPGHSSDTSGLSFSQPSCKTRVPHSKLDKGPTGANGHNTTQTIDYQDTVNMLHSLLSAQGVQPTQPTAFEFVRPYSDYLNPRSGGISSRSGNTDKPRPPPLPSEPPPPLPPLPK
# procedureText: CDK protein kinase inhibition by ADP-Glo assay, CDK9-CYCLIN T1
# Assay type: biochemical
# studyConditions: ADP-Glo, 1000 μM ATP; Table 31; read-out: CDK9-CYCLINT1, IC50
pIC50: −log10 of the molar value.
We begin with a simple list: items and their reported pIC50.

Answered cases to consult:
INSERT INTO assay_data (compound, reported) VALUES
  ('C[C@H]1CCCC(F)(F)c2cc(ccn2)Nc2cc(n[nH]2)[C@H]2CC[C@H](C2)OC(=O)N1 [Compound 166]', '7.30 to 8.00'),
  ('C[C@@H]1NC(=O)O[C@@H]2CC[C@@H](C2)c2cc([nH]n2)Nc2ccnc(c2)COCC1(F)F [compound 164]', '≥ 8.00'),
  ('C[C@H]1NC(=O)O[C@@H]2CC[C@@H](C2)c2cc([nH]n2)Nc2ccnc(c2)COCC1(F)F [compound 165]', '7.00 to 7.30');

Proceeding to the next compound to report its pIC50.
Q: # return recorded pIC50 for input O=C1N[C@H]2C[C@@H](CC(F)(F)c3cc(ccn3)Nc3cc(n[nH]3)[C@H]3CC[C@H](C3)O1)C2 (single isomer, unassigned) [Compound 170]
A: 7.30 to 8.00

---

# targetOfAssay: CDK2-CYCLIN E1 (Homo sapiens)
# procedureText: CDK protein kinase inhibition by ADP-Glo assay, CDK2-CYCLIN E1
# Type: biochemical
# studyConditions: ADP-Glo, 1000 μM ATP; Table 33; read-out: CDK2-CYCLINE, IC50
pIC50: −log10 of the molar value.
attributeMeasured: pIC50

Q: # return recorded pIC50 for input C[C@H]1CCCOc2cc(ccn2)Nc2[nH]nc(c2F)[C@H]2CC[C@H](C2)OC(=O)N1
A: 7.30 to 8.00

---

We begin with a simple list: items and their reported pIC50.
# System: Phospho-Rb (Ser807/811) in OVCAR3 cells
# procedureText: Phospho-Rb expression inhibition in OVCAR3 cells quantified by In Cell Western
# Assay type: cell-based
# studyConditions: Homo sapiens, OVCAR-3, 24 hours, read-out: OVCAR-3 pRb IC50
pIC50: −log10 of the molar value.

Answered cases to consult:
INSERT INTO results (smilesstring, reported) VALUES
  ('O=C1NC2(CCCCc3cc(ccn3)Nc3cc(n[nH]3)[C@H]3CC[C@H](C3)O1)CC2', '7.30 to 8.00'),
  ('O=C1NCCCCC(F)(F)c2cc(ccn2)Nc2cc([nH]n2)[C@H]2CC[C@H](C2)O1', '≥ 8.70'),
  ('C[C@H]1CC23CC(C2)(C3)NC(=O)O[C@@H]2CC[C@@H](C2)c2cc(n[nH]2)Nc2cc(nc(C(F)F)c2)O1', '< 6.60'),
  ('O=C1NCCCCOc2cccc(c2)Nc2cc([nH]n2)[C@H]2CC[C@H](C2)O1', '7.30 to 8.00'),
  ('C[C@H]1CCCOc2cc(ccn2)Nc2cc(n[nH]2)[C@@H]2C[C@H](F)[C@@H](C2)OC(=O)N1', '8.00 to 8.70');

Q: State measured pIC50 of the molecule C[C@@H]1NC(=O)O[C@H]2CC(C[C@H]2F)c2n[nH]c(c2F)Nc2ccnc(c2)OCCC1(F)F with Phospho-Rb (Ser807/811) in OVCAR3 cells.
A: 7.30 to 8.00

Q: State measured pIC50 of the molecule O=C1NC23CC(CCOc4cc(ccn4)Nc4cc([nH]n4)[C@H]4CC[C@H](C4)O1)(C2)C3 with Phospho-Rb (Ser807/811) in OVCAR3 cells.
A: ≥ 8.70

---

# targetOfAssay: CDK6-CYCLIN D3 (Homo sapiens, UniProt Q00534)
# Sequence (Q00534 whole entry): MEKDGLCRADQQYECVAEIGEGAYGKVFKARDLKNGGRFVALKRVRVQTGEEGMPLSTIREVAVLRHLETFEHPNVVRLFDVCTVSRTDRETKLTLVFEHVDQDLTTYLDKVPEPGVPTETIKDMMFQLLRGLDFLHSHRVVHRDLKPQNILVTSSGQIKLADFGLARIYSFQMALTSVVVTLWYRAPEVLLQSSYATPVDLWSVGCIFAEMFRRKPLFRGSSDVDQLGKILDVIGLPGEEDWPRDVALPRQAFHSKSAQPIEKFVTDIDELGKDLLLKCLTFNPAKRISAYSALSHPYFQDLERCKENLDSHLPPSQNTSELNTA
# Sequence (P30281 whole entry partner): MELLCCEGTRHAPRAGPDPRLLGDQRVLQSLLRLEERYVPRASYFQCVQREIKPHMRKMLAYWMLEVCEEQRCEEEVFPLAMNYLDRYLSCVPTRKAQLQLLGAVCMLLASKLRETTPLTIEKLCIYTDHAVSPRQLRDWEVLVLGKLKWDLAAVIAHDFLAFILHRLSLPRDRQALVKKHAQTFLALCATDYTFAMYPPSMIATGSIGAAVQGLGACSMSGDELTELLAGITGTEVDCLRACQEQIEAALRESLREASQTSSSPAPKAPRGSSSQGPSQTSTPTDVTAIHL
# procedureText: CDK protein kinase inhibition by ADP-Glo assay, CDK6-CYCLIN D3
# Type: biochemical
# studyConditions: ADP-Glo, 1000 μM ATP; Table 9; read-out: CDK6-CYCLIND3, IC50
pIC50: −log10 of the molar value.
attributeMeasured: pIC50

Q: # return recorded pIC50 for input C[C@@H]1CCC2(CC2)NC(=O)O[C@@H]2CC[C@@H](C2)c2cc([nH]n2)Nc2ccnc(c2)O1
A: 6.30 to 7.00

Q: # return recorded pIC50 for input O=C1NC23CC(CCc4cc(ccn4)Nc4cc([nH]n4)[C@H]4CC[C@H](C4)O1)(C2)C3
A: 6.30 to 7.00
